target: D(2) dopamine receptor (Homo sapiens); test: Binding affinity towards human Dopamine receptor D2 (long) by [3H]-spiperone displacement.
Sequence (P14416 whole entry): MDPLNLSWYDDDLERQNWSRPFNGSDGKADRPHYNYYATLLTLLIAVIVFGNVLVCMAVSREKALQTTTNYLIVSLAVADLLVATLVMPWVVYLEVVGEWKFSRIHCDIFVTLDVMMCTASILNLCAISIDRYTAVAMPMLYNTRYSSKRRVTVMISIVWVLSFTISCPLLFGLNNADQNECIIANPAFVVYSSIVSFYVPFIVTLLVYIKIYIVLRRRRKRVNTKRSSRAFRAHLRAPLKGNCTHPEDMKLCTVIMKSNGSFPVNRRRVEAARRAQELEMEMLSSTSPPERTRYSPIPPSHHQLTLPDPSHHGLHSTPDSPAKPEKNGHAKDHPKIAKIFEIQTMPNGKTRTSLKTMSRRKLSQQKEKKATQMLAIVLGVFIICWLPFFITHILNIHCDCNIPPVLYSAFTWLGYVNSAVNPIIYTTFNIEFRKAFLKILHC
measuredEndpoint: Ki (nM)

Known Ki results, listed for orientation:
CNc1cc(OC)c(C(=O)NC[C@@H]2CCN(Cc3ccccc3)C2)cc1Cl 110
COc1cc(N(C)C(C)=O)c(Cl)cc1C(=O)NC[C@@H]1CCN(Cc2ccccc2)C1 30000
CNc1cc(OC)c(C(=O)NC[C@H]2CN(Cc3ccccc3)C[C@@H]2C)cc1Cl 330
COc1cc(N)c(Cl)cc1C(=O)NC[C@H]1CCN(Cc2ccccc2)C1 820
COc1ccc(Br)cc1C(=O)NC[C@@H]1CCN(Cc2ccccc2)C1 3100
COc1cc(N(C)C(C)=O)c(Cl)cc1C(=O)NC[C@H]1CCN(Cc2ccccc2)C1 38000
CCC[C@@H]1CN(Cc2ccccc2)C[C@@H]1CNC(=O)c1cc(Cl)c(NC)cc1OC 190

I = CNc1cc(OC)c(C(=O)NC[C@H]2CCN(Cc3ccccc3)C2)cc1Cl
II = CNc1cc(OC)c(C(=O)NC[C@@H]2CN(Cc3ccccc3)C[C@H]2C)cc1Cl
Which is greater in Ki, the first item I or the second item II ? Reply briefly: the label of your chosen item.
I
(I: 110 nM, II: 28 nM)

====

The reader will find Ki measurements below, all made with D(4) dopamine receptor (Homo sapiens, UniProt P21917).
Sequence (P21917 whole entry): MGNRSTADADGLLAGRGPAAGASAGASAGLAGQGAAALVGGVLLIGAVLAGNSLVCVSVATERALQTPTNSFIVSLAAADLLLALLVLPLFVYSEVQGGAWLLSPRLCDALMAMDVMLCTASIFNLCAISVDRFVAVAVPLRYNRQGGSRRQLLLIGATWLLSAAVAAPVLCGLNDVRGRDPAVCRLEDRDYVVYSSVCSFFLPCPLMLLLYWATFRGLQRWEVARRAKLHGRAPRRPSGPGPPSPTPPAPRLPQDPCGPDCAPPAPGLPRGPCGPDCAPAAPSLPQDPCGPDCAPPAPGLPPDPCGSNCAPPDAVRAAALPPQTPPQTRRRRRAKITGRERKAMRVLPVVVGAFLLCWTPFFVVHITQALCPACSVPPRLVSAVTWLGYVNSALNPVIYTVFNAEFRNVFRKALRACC
measuredEndpoint: Ki (nM)

Some solved cases for reference:
CNc1cc(OC)c(C(=O)NC[C@H]2CN(Cc3ccccc3)C[C@H]2C)cc1Cl 47
COc1cc(N(C)C(C)=O)c(Cl)cc1C(=O)NC[C@@H]1CCN(Cc2ccccc2)C1 4200
CNc1cc(OC)c(C(=O)NC[C@H]2CN(Cc3ccccc3)C[C@@H]2C)cc1Cl 150
COc1ccc(Br)cc1C(=O)NC[C@H]1CCN(Cc2ccccc2)C1 46
COc1ccc(Br)cc1C(=O)NC[C@@H]1CCN(Cc2ccccc2)C1 48
COc1cc(NC(C)=O)c(Cl)cc1C(=O)NC[C@@H]1CCN(Cc2ccccc2)C1 250

I = COc1cc(NC(C)=O)c(Cl)cc1C(=O)NC[C@H]1CCN(Cc2ccccc2)C1
II = CCC[C@H]1CN(Cc2ccccc2)C[C@H]1CNC(=O)c1cc(Cl)c(NC)cc1OC
III = COc1cc(N(C)C(C)=O)c(Cl)cc1C(=O)NC[C@H]1CCN(Cc2ccccc2)C1
IV = CCC[C@@H]1CN(Cc2ccccc2)C[C@H]1CNC(=O)c1cc(Cl)c(NC)cc1OC
V = CNc1cc(OC)c(C(=O)NC[C@@H]2CN(Cc3ccccc3)C[C@H]2C)cc1Cl
Returns the items ordered by Ki, from maximum to minimum. Respond with an ordered listing of the labels, as requested.
III, I, V, IV, II
(III: 7000 nM, I: 340 nM, V: 220 nM, IV: 130 nM, II: 46 nM)

====

molecular target: D(2) dopamine receptor (Homo sapiens); assay: Binding affinity towards human Dopamine receptor D2 (long) by [3H]-spiperone displacement.
pKi: −log10 of the molar value.
measuredEndpoint: pKi

CNc1cc(OC)c(C(=O)NC[C@H]2CN(Cc3ccccc3)C[C@H]2C)cc1Cl 6.82

A = COc1cc(NC(C)=O)c(Cl)cc1C(=O)NC[C@H]1CCN(Cc2ccccc2)C1
B = CCC[C@@H]1CN(Cc2ccccc2)C[C@H]1CNC(=O)c1cc(Cl)c(NC)cc1OC
For the pair A and B , which entry has the numerically smaller recorded pKi? Your answer should be the label of the entry you select.
A
(A: 4.57, B: 7.27)
